Target: Carbonic anhydrase 9 (Homo sapiens, UniProt Q16790)
Test: Inhibition of human recombinant carbonic anhydrase 9 after 15 mins by stopped flow CO2 hydration assay
pKi: −log10 of the molar value.
Parameter pKi: see the listing below.
endpointLabel: pKi

1) CN(Cc1cnc2nc(N)nc(N)c2n1)c1ccc(C(=O)NCCc2ccc(S(N)(=O)=O)cc2)cc1 8.43
2) Nc1nc(N)c2nc(CNc3ccc(S(N)(=O)=O)cc3)cnc2n1 8.68
3) Nc1nc(N)c2nc(CNc3ccc(C(=O)NCCc4ccc(S(N)(=O)=O)cc4)cc3)cnc2n1 8.60

----------
Reported IC50 values for the following compounds.
Tested on: PC-3
Assay: Antiproliferative activity against human PC3 cells after 72 hrs by MTT assay
Type: functional, cell-based
Settings: PC-3, 72 h

compound	IC50 / µM
Nc1nc(N)c2nc(CNCCc3ccc(S(N)(=O)=O)cc3)cnc2n1	300
Nc1nc(N)c2nc(CNCCc3ccc(S(=O)(=O)O)cc3)cnc2n1	460
Nc1nc(N)c2nc(CNc3ccc(S(=O)(=O)O)cc3)cnc2n1	500
Nc1nc(N)c2nc(CNc3ccc(C(=O)NCCc4ccc(S(N)(=O)=O)cc4)cc3)cnc2n1	400
Nc1nc(N)c2nc(CNc3ccc(S(N)(=O)=O)cc3)cnc2n1	550
Nc1nc(N)c2nc(CNc3ccc(C(=O)NCCc4ccc(S(=O)(=O)O)cc4)cc3)cnc2n1	500
CN(Cc1cnc2nc(N)nc(N)c2n1)c1ccc(C(=O)NCCc2ccc(S(N)(=O)=O)cc2)cc1	500
CN(Cc1cnc2nc(N)nc(N)c2n1)c1ccc(C(=O)N[C@@H](CCC(=O)O)C(=O)O)cc1 [METHOTREXATE]	0.001
